Here, each record is paired with measured Inhibition data.
tested on: Plasmodium falciparum; test: GSK_TCMDC: Inhibition of Plasmodium falciparum Dd2 in whole red blood cells, using parasite LDH activity as an index of growth. Test compounds present at 2uM; format: functional
Recorded Metric: Inhibition (%)

molecule=CCCCCCC(C)(C)c1cc(O)c2c3c(c(=O)oc2c1)CCN(Cc1ccccc1)C3.Cl recorded_metric=Inhibition reading_unit=% readout_number=99
molecule=CC(=O)N(Cc1ccccc1-c1cccc(CNCCc2ccccc2)c1)C1CCN(Cc2ccccc2)CC1.O=C(O)C(F)(F)F recorded_metric=Inhibition reading_unit=% readout_number=30
molecule=Cl.O=C(CC1CCCC1)N(CC1CCN(Cc2ccc(C(F)(F)F)cc2)CC1)c1ccc(N2CCOCC2)c(F)c1 recorded_metric=Inhibition reading_unit=% readout_number=97
molecule="COC(=O)c1ccc(CC(C)NCC(O)c2cccc(OCc3ccccc3)c2)cc1.Cl (stereo not drawn)" recorded_metric=Inhibition reading_unit=% readout_number=37
molecule="CCCCCC(C)C(C)c1cc(O)c2c(c1)OC1(C(C)C)CC(O)C(C)C2C1 (stereo not drawn)" recorded_metric=Inhibition reading_unit=% readout_number=87
molecule="Cc1c(C)c2c(c(C)c1O)CC[C@@](C)(C(=O)NC1CCC(CN3CCC(c4c[nH]c5ccccc45)CC3)CC1)O2 (stereo partly drawn)" recorded_metric=Inhibition reading_unit=% readout_number=57
molecule=CC(=O)Nc1ccc(OCCN(CC(C)C)c2ccc(C#N)c(C(F)(F)F)c2)c(Cl)c1 recorded_metric=Inhibition reading_unit=% readout_number=94
molecule="O=C(NC1CCC(CN2CCC(c3c[nH]c4ccccc34)CC2)CC1)c1cc2cccc([N+](=O)[O-])c2[nH]1 (stereo not drawn)" recorded_metric=Inhibition reading_unit=% readout_number=100
molecule="Cc1[nH]c2ccccc2c1C1=CCN(CCCCC2(C)C(=O)Nc3ccccc32)CC1 (stereo not drawn)" recorded_metric=Inhibition reading_unit=% readout_number=89
molecule=CS(=O)(=O)Nc1ccc2[nH]cc(C3CCN(CC4CCN(C(=O)/C=C/c5ccc(Cl)c(Cl)c5)CC4)CC3)c2c1 recorded_metric=Inhibition reading_unit=% readout_number=92
molecule="Cc1ccc2c(C3=CCN(CCCCC4(C)C(=O)Nc5ccccc54)CC3)c(C)[nH]c2c1 (stereo not drawn)" recorded_metric=Inhibition reading_unit=% readout_number=91
molecule="CN1CC(c2ccc(Cl)c(Cl)c2)OC1=N.I (stereo not drawn)" recorded_metric=Inhibition reading_unit=% readout_number=3
molecule=CCOc1ccc(-c2nc3cc(-c4nc5cc(N6CCN(C)CC6)ccc5[nH]4)ccc3[nH]2)cc1.Cl.O recorded_metric=Inhibition reading_unit=% readout_number=99
molecule=Cc1[nH]c2cc(Cl)ccc2c1C1=CCN(CCN2CCOc3c(Br)cccc3C2=O)CC1.Cl recorded_metric=Inhibition reading_unit=% readout_number=58
molecule="CC(Cc1ccc(C2=CCNCC2)cc1)NCC(O)c1cccc(C(F)(F)F)c1.Cl (stereo not drawn)" recorded_metric=Inhibition reading_unit=% readout_number=0
molecule="CC(Cc1ccc(C(C)(C)C)cc1)NCC(O)c1ccccc1.Cl (stereo not drawn)" recorded_metric=Inhibition reading_unit=% readout_number=89
molecule=COC(=O)/C=C/C(=O)N[C@@H]1CC[C@@]2(O)[C@H]3Cc4ccc(O)c5c4[C@@]2(CCN3CC2CC2)[C@H]1O5.Cl recorded_metric=Inhibition reading_unit=% readout_number=66
molecule="O=C(Cc1c(-c2ccccc2)[nH]c2ccccc12)NC1CCC(CN2CCC(c3c[nH]c4ccccc34)CC2)CC1 (stereo not drawn)" recorded_metric=Inhibition reading_unit=% readout_number=75
